Molecular target: Gal(b1-4)GlcNAc(a1-6)Gal(b1-4)GlcNAc
Experiment: glycan array binding signal (z-score within array); higher = stronger binding
Conditions: glycan notation: IUPAC condensed, linker removed
The full list was thinned out, with the strongest signals kept by preference.

BINDER	glycan array binding signal (z-score)
GH98CBM51-1 (Streptococcus pneumoniae) (protein) MTYLSDMDWSSATHGDIDKTKTVQKDAPFTTGNKGEHTKISLLTSDDKVKYFDKGIGTVADSPSVISYDISGQGFEKFETYIGIDQSANSSRSDHAVVDRIEIEIDGKVVYSSSVTNPEGFRYNTQAQFISVTIPQNAKKISLKSFAGEHTWGDEVVFADAKLIKTVST	-0.186
GH95CBM (Clostridium perfringens) (protein) EKVAVETSVYLSELEWKSASTGYGEIQKDASCDGNTITLKGENGEKVSYDKGIGTHAHSEIVYSLEGLDYYDYFETFVGVDQEMAGTVASISFEVYLDNEKVFDSGLMTGDTTQKHVKVPIAGKNTLKLVVKDGGDSIGSDHGSFGDAKLT	-0.283
Epa12 (Candida glabrata) (protein) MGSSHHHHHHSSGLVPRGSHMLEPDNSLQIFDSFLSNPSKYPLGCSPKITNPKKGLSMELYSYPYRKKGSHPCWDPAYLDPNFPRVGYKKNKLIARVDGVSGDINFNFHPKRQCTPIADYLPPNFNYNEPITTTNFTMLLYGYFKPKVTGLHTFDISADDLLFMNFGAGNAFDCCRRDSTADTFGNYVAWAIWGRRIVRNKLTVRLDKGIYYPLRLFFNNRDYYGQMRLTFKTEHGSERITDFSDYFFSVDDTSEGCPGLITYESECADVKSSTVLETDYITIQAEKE	3.61
Galatrox (Botrops atrox), P0DM53 (protein) NNCPQDWLPMNGLCYKIFDELKAWKDAEMFCRKYKPGCHLASIILYGESPEWAEGHSEVWLGLWDKKKDFSWEWTDR	3.28
SAG1 (Toxoplasma gondii), P13664 (protein) MSVSLHHFIISSGFLTSMFPKAVRRAVTAGVFAAPTLMSFLRCGVMASDPPLVANQVVTCPDKKSTAAVILTPTENHFTLKCPKTALTEPPTLAYSPNRQICPAGTTSSCTSKAVTLSSLIPEAEDSWWTGDSASLDTAGIKLTVPIEKFPVTTQTFVVGCIKGDDAQSCMVTVTVQARASSVVNNVARCSYGADSTLGPVKLSAEGPTTMTLVCGKDGVKVPQDNNQYCSGTTLTGCNEKSFKDILPKLTENPWQGNASSDKGATLTIKKEAFPAESKSVIIGCTGGSPEKHHCTVKLEFAGAAGSAKSAAGTASHVSIFAMVIGLIGSIAACVA	-0.386
